Biological target: T1, T4 Dda E94C/A360C (Enterobacteria phage T4, UniProt P32270 SEQ:1-439, E94C/A360C/(ΔM1)G1G2)
T1 sequence: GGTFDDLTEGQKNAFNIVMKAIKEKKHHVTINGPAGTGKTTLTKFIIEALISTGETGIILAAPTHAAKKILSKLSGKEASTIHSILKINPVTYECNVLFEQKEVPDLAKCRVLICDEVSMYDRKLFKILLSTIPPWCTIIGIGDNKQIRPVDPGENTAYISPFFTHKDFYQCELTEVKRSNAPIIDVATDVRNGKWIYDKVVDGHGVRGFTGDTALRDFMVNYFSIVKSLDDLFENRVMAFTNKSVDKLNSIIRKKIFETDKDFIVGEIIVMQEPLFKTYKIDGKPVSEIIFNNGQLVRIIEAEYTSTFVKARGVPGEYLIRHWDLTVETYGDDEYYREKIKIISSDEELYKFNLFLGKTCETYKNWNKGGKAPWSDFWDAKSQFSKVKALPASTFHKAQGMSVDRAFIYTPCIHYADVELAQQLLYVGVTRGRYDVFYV
Experiment: FP; 25 mM potassium phosphate, 151.5 mM KCl, pH 8.0, 10 mM MgCl2, 25 C, 60 min; exact value only in figure
Details: label: FAM on thymine 37
quantity-kind: Kd

{"binder": "TTTTTTTTTTTTTTTTTTTTTTTTTTTTTTTTTTTTTTTTTTTT (ssDNA) [44 nt linear ssDNA]", "quantity-kind": "Kd", "measurement": "< 15 nM"}
